All figures here come from paper PMC8397297.

Assignment: determine reported IC50 for the given compounds.
target: mGAT3 (Mus musculus); construct: expressed in transfected cells; host or cells: HEK-293; assay: [3H]GABA uptake assay in HEK-293 cells stably expressing mGAT3; assay type: cell-based; settings: [3H]GABA uptake; read-out: pIC50 ± SEM mGAT3 (converted)
Give bare numbers, in µM.

Known IC50 results, listed for orientation:
Prompt line: GET /values?readout=IC50&item= CN(CCC=C1c2ccccc2C=Cc2ccccc21)C(CO)C(=O)NCc1ccc(Cl)cc1 (centres unmarked) [Compound 55c]
Response line: 15.1

Prompt line: Try the compound CN(CCON=C(c1ccccc1)c1ccccc1)C(CCO)C(=O)NCc1ccc(Cl)c(Cl)c1 (centres unmarked) [Compound 47c]
Response line: 11

Prompt line: Try the compound CN(CCON=C(c1ccccc1)c1ccccc1)C(CCN)C(=O)NCc1ccccc1Cl (centres unmarked) [Compound 50a]
Response line: 8.51

For every record below, what is its IC50?
1. Cc1ccsc1C(=C1CCN([C@H](C[C@@H](C)O)C(=O)NCc2ccccc2)CC1)c1sccc1C (relative stereo) [2RS,4RS-37a]
2. CCOC(=O)[C@H](C)N(C)CCC=C1c2ccccc2C=Cc2ccccc21
3. CC(O)CC(C(=O)NCc1ccccc1)N1CCC(=C2c3ccccc3CCc3ccccc32)CC1 (centres unmarked) [2RS,4RS-43a]
4. Cc1ccsc1C(=C1CCN(C(CC(C)O)C(=O)NCc2ccccc2Cl)CC1)c1sccc1C (centres unmarked) [2RS,4RS-37b]
5. CN(CCC=C1c2ccccc2CCc2ccccc21)C(CO)C(=O)NCc1ccc(Cl)cc1 (centres unmarked) [Compound 56c]

Response line:
1: 41.7; 2: 21.9; 3: 21.4; 4: 93.3; 5: 14.5

---

biological target: mGAT1 (Mus musculus); construct: expressed in transfected cells; host or cells: HEK-293; assay: [3H]GABA uptake assay in HEK-293 cells stably expressing mGAT1; format: cell-based; conditions: [3H]GABA uptake; read-out: pIC50 ± SEM mGAT1 (converted)
Experimental endpoint: IC50 (µM)
Give bare numbers, in µM.

Prompt line: GET /values?readout=IC50&item= CN(CCON=C(c1ccccc1)c1ccccc1)C(CCO)C(=O)NCc1ccc(Cl)c(Cl)c1 (stereo not shown) [Compound 47c]
Response line: 21.9

Prompt line: Try the compound CN(CCC=C1c2ccccc2CCc2ccccc21)C(CO)C(=O)NCc1ccc(Cl)cc1 (stereo not shown) [Compound 56c]
Response line: 61.7

Prompt line: Try the compound CN(CCON=C(c1ccccc1)c1ccccc1)C(CO)C(=O)NCc1ccc(F)cc1 (stereo not shown) [Compound 59c]
Response line: 26.3

Others:
Prompt line: GET /values?readout=IC50&item= Cc1ccsc1C(=C1CCN(C(CO)C(=O)NCc2ccccc2)CC1)c1sccc1C (stereo not shown) [Compound 54a]
Response line: 15.1

---

Target: mGAT3 (Mus musculus, UniProt P31649)
Construct: expressed in transfected cells; host or cells: HEK-293
Sequence (P31649 1-602): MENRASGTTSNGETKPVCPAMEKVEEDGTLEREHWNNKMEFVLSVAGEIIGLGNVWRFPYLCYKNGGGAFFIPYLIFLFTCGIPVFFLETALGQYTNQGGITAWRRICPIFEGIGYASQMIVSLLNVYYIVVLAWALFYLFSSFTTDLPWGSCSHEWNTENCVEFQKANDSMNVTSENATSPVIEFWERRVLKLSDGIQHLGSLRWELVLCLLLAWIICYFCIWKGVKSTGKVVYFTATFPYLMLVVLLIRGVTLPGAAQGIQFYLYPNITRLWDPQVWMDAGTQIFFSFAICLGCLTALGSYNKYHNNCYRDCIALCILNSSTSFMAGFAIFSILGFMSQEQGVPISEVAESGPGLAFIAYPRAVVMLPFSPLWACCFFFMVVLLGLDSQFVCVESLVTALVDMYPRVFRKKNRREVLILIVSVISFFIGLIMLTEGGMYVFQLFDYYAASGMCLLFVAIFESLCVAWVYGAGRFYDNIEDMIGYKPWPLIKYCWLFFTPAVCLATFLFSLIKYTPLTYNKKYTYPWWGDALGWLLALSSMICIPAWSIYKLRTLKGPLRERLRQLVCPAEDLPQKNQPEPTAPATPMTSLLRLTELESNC
Assay: [3H]GABA uptake assay in HEK-293 cells stably expressing mGAT3
Format: cell-based
Details: [3H]GABA uptake; read-out: pIC50 ± SEM mGAT3 (converted)
Assignment: determine reported log10(IC50) for the given compounds.
Quick note: numbers are log10 of IC50, with µM as the unit.

For every record below, what is its log10(IC50)?
1. O=C(NCc1ccccc1)C(CO)N1CCC(=C2c3ccccc3-c3ccccc32)CC1 (stereo not shown)
2. CC(C(=O)NCc1ccccc1)N(C)CCON=C(c1ccccc1)c1ccccc1 (stereo not shown)
3. CN(CCON=C(c1ccccc1)c1ccccc1)C(CCO)C(=O)NCc1ccccc1 (stereo not shown) [Compound 47a]
4. CN(CCC=C1c2ccccc2C=Cc2ccccc21)C(CO)C(=O)NCc1ccc(F)cc1 (stereo not shown) [Compound 55d]

Response line:
1. 1.84
2. 1.14
3. 1.26
4. 1.02

---

molecular target: mGAT1 (Mus musculus, UniProt P31648); construct: expressed in transfected cells; host or cells: HEK-293; assay: [3H]GABA uptake assay in HEK-293 cells stably expressing mGAT1; format: cell-based; conditions: in the presence of 100 μM inhibitor
Assignment: determine reported remaining [3H]GABA uptake mGAT1 for the given compounds.

Known remaining [3H]GABA uptake mGAT1 results, listed for orientation:
Prompt line: GET /values?readout=remaining [3H]GABA uptake mGAT1&item= CC(O)CC(C(=O)NCc1ccccc1)N1CCC(=C2c3ccccc3-c3ccccc32)CC1 (stereo not drawn) [2RS,4RS-41a]
Response line: 100 μM: 49%

Prompt line: Try the compound CCOC(=O)C(C)N(C)CCC=C(c1sccc1C)c1sccc1C (stereo not drawn) [Compound 73]
Response line: 100 μM: 55%

Prompt line: Try the compound Cc1ccc(CNC(=O)[C@@H](C[C@H](C)O)N(C)CCC=C2c3ccccc3CCc3ccccc32)cc1 (relative stereo) [2RS,4SR-39c]
Response line: 100 μM: 51%

For every record below, what is its remaining [3H]GABA uptake mGAT1?
1. CC(O)CC(C(=O)NCc1ccc(F)cc1)N(C)CCC=C1c2ccccc2CCc2ccccc21 (stereo not drawn) [2RS,4RS-39a]
2. Cc1ccsc1C(=C1CCN(C(CO)C(=O)NCc2ccccc2Cl)CC1)c1sccc1C (stereo not drawn) [Compound 54b]

Response line:
100 μM: 51%
100 μM: 53%

For every record below, what is its remaining [3H]GABA uptake mGAT1?
1. CCC(C(=O)NCc1ccccc1)N(C)CCON=C(c1ccccc1)c1ccccc1 (stereo not drawn) [Compound 66a]
2. C[C@H](O)C[C@H](C(=O)NCc1ccc(Cl)cc1)N(C)CCC=C1c2ccccc2CCc2ccccc21 (relative stereo) [2RS,4SR-39b]
3. CCOC(=O)[C@H](C)N(C)CCC=C1c2ccccc2C=Cc2ccccc21 [Compound 71]
4. Cc1ccsc1C(=CCCN(C)C(C)C(=O)O)c1sccc1C (stereo not drawn) [Compound 75]
5. CCC(C(=O)NCc1ccccc1Cl)N1CCC(=C(c2sccc2C)c2sccc2C)CC1 (stereo not drawn) [Compound 64b]
6. Cc1ccsc1C(=C1CCN(C(CC(C)O)C(=O)NCc2ccccc2Cl)CC1)c1sccc1C (stereo not drawn) [2RS,4SR-37b]
7. CC(O)CC(C(=O)NCc1ccc(F)cc1)N1CCC(=C2c3ccccc3CCc3ccccc32)CC1 (stereo not drawn) [2RS,4SR-43b]

Response line:
1: 100 μM: 50%; 2: 100 μM: 51%; 3: 100 μM: 52%; 4: 100 μM: 71%; 5: 100 μM: 66%; 6: 100 μM: 50%; 7: 100 μM: 54%

For every record below, what is its remaining [3H]GABA uptake mGAT1?
1. CCC(C(=O)NCc1ccccc1Cl)N(C)CCON=C(c1ccccc1)c1ccccc1 (stereo not drawn) [Compound 66b]
2. C[C@@H](C(=O)O)N(C)CCC=C1c2ccccc2C=Cc2ccccc21 [Compound 74]
3. C[C@@H](C(=O)OCc1ccccc1)N(C)CCC=C1c2ccccc2C=Cc2ccccc21 [Compound 72]

Response line:
1. 100 μM: 69%
2. 100 μM: 55%
3. 100 μM: 98%

---

molecular target: mGAT1 (Mus musculus, UniProt P31648); construct: expressed in transfected cells; host or cells: HEK-293; assay: [3H]GABA uptake assay in HEK-293 cells stably expressing mGAT1; format: cell-based; conditions: [3H]GABA uptake; read-out: pIC50 ± SEM mGAT1 (converted)
Assignment: determine reported IC50 for the given molecules.
Answers are plain numbers, in µM.

Prompt line: GET /values?readout=IC50&item= O=C(NCc1ccccc1)C(CO)N1CCC(=C2c3ccccc3CCc3ccccc32)CC1 (stereo not shown)
Response line: 35.5

Prompt line: Try the molecule Cc1ccc(CNC(=O)C(CO)N(C)CCC=C2c3ccccc3C=Cc3ccccc32)cc1 (stereo not shown) [Compound 55e]
Response line: 26.9

Prompt line: Try the molecule Cc1ccc(CNC(=O)C(CO)N(C)CCC=C2c3ccccc3CCc3ccccc32)cc1 (stereo not shown) [Compound 56e]
Response line: 18.6

Note: attention shifts to another entry.
Prompt line: GET /values?readout=IC50&item= CCC(C(=O)NCc1ccccc1)N(C)CCC=C(c1sccc1C)c1sccc1C (stereo not shown)
Response line: 26.9
